target: Beta-lactamase TEM (Escherichia coli, UniProt P62593); assay: Inhibition constant (Ki) for TEM-1 beta-lactamase
Sequence (P62593 whole entry): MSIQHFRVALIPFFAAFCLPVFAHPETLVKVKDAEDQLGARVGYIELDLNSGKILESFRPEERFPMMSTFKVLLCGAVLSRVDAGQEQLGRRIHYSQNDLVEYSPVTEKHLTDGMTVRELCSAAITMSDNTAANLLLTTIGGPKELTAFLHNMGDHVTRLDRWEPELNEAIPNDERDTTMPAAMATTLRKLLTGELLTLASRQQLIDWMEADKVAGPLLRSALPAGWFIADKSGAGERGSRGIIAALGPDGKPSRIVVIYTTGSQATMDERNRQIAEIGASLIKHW
param class (str): category from Ki; see ranges low interval (below 20 µM), middle interval (20 µM to below 50 µM), high interval (50 µM or more)

The following molecules have reported results that may help.
Cc1ccc(C(=O)O)cc1N1CC(Br)(Br)C1=O: high interval
O=C(O)c1ccc2c(c1)N1C(=O)CC1CC2F (stereo unspecified): middle interval
Cc1ccc(C(=O)O)cc1N1CC(F)(F)C1=O: high interval

-- ask Category of Cc1ccc(C(=O)O)cc1N1CCC1=O , please.
-- reply low interval

* * *

molecular target: Beta-lactamase TEM (Escherichia coli, UniProt P62593); assay: Inhibition constant (Ki) for TEM-1 beta-lactamase
Parameter: Ki (µM)
Value expressed in µM; do not type the unit.

Consider the reported Ki for these compounds:
Cc1ccc(C(=O)O)cc1N1CC(Br)C1=O (configuration not stated): 40
CC1(C)S[C@@H]2[C@H](NC(=O)Cc3ccccc3)C(=O)N2[C@H]1C(=O)O: 20
Cc1onc(-c2ccccc2Cl)c1C(=O)N[C@@H]1C(=O)N2[C@@H]1SC(C)(C)[C@@H]2C(=O)O: 13
O=C(O)c1ccc2c(c1)N1C(=O)CC1CC2 (configuration not stated): 20
Cc1ccc(C(=O)O)cc1N1CC(F)C1=O (configuration not stated): 20
Cc1ccc(C(=O)O)cc1N1CC(F)(Br)C1=O (configuration not stated): 60

// below: Ki requested for another compound
-- ask Quick one: Ki of O=C(O)c1ccc2c(c1)N1C(=O)CC1CC2Cl (configuration not stated) ?
-- reply 50

Hey, just so you know, these numbers are from ChEMBL document CHEMBL1124033.
